Tested on: green peach aphid (Myzus persicae)
test name: Myzus persicae oral test
Assay type: in vivo
reported conditions: 120 h
Items are presented alongside their recorded mortality at 4 ppm.

In the examples that follow, each entry is paired with its recorded mortality at 4 ppm.
[
  {
    "compound": "CC(NC(=O)c1cc(Cl)cc(C(F)(F)F)c1)c1nc(N)nn1-c1ncccn1 (racemic)",
    "mortality at 4 ppm": "100%"
  },
  {
    "compound": "CC(NC(=O)c1cc(Cl)cc(S(C)(=O)=O)c1)c1nc(NS(C)(=O)=O)nn1-c1ccc(Cl)cn1 (racemic)",
    "mortality at 4 ppm": "90%"
  },
  {
    "compound": "CNc1nc(C(C)NC(=O)c2cc(Cl)cc(OC(F)(F)F)c2)n(-c2ncccn2)n1 (centres unmarked)",
    "mortality at 4 ppm": "100%"
  },
  {
    "compound": "CC(NC(=O)c1cc(Cl)cc(C(F)(F)F)c1)c1nc(C#N)nn1-c1ncccn1 (single isomer, unassigned)",
    "mortality at 4 ppm": "90%"
  },
  {
    "compound": "CC(NC(=O)c1cc(Cl)cc(S(C)(=O)=O)c1)c1nc(S(C)(=O)=O)nn1-c1ccc(Cl)cn1 (racemic)",
    "mortality at 4 ppm": "100%"
  },
  {
    "compound": "CC(NC(=O)c1cc(Cl)cc(S(C)(=O)=O)c1)c1nc(-c2cnccn2)nn1-c1ncccn1 (centres unmarked)",
    "mortality at 4 ppm": "90%"
  },
  {
    "compound": "CC(NC(=O)c1cc(C(F)(F)F)cc(C(F)(F)F)c1)c1nc(N)nn1-c1ccc(C#N)cn1 (centres unmarked)",
    "mortality at 4 ppm": "100%"
  },
  {
    "compound": "CC(NC(=O)c1cc(Cl)cc(S(C)(=O)=O)c1)c1nc(-c2ccco2)nn1-c1ncccn1 (centres unmarked)",
    "mortality at 4 ppm": "100%"
  },
  {
    "compound": "CSc1nc(C(C)NC(=O)c2cc(Cl)cc(S(C)(=O)=O)c2)n(-c2ccc(Cl)cn2)n1 (racemic)",
    "mortality at 4 ppm": "100%"
  },
  {
    "compound": "CC(NC(=O)c1cc(Cl)cc(S(C)(=O)=O)c1)c1nc(N)nn1-c1ccc(Cl)cn1 (centres unmarked)",
    "mortality at 4 ppm": "90%"
  }
]

# mortality at 4 ppm (compound: CC(NC(=O)c1cc(Br)cc(Br)c1)c1nc(N)nn1-c1ccc(C#N)cn1 (centres unmarked) ) is 90%

# mortality at 4 ppm (compound: CNc1nc(C(C)NC(=O)c2cc(Br)cc(C(F)(F)F)c2)n(-c2ncccn2)n1 (centres unmarked) ) is 100%

# mortality at 4 ppm (compound: CC(NC(=O)c1cc(Cl)cc(C(F)(F)F)c1)c1nc(C(N)=O)nn1-c1ncccn1 (single isomer, unassigned) ) is 100%

Cited source for all entries: patent US20230028441A1
